Kindly state cellular uptake, MFI (Mean Fluorescence Intensity) for each of the entries shown.
test system: HeLa cell; experiment: Cell penetration of pep(CPP)-FITC conjugate in HeLa cell line, flow cytometry (FACS); format: cell-based, Homo sapiens; conditions: HeLa cells, 20 uM FITC-fused peptide, 37° C. for an hour, control = FITC only
Give bare numbers.

The cases that follow already have their cellular uptake, MFI (Mean Fluorescence Intensity) on record.
[
  {
    "SUBSTANCE": "HREARPALLTSRLRFIPKPDG (listed as Homo sapiens) [Pep-RIA-22]",
    "SYSTEM NAME": "HeLa cell",
    "READOUT VALUE": 14.42
  },
  {
    "SUBSTANCE": "VRQHREARPALLTSRLRFIPKPDGL (listed as Homo sapiens) [Pep-RIA-34]",
    "SYSTEM NAME": "HeLa cell",
    "READOUT VALUE": 16.37
  },
  {
    "SUBSTANCE": "EARPALLTSRLRFIPKPDGLRPI (listed as Homo sapiens) [Pep-RIA-70]",
    "SYSTEM NAME": "HeLa cell",
    "READOUT VALUE": 16.32
  },
  {
    "SUBSTANCE": "REARPALLTSRLRFIPKPDGL (listed as Homo sapiens) [Pep-RIA-30]",
    "SYSTEM NAME": "HeLa cell",
    "READOUT VALUE": 15.34
  },
  {
    "SUBSTANCE": "ARPALLTSRLRFIPK (listed as Homo sapiens) [Pep-RIA-91]",
    "SYSTEM NAME": "HeLa cell",
    "READOUT VALUE": 19.96
  }
]

Could I get cellular uptake, MFI (Mean Fluorescence Intensity) for every one of these entries?
1. RPALLTSRLRF (listed as Homo sapiens) [Pep-RIA-122]
2. EVRQHREARPALLTSRLRFIPKPD (listed as Homo sapiens) [Pep-RIA-41]
3. AEVRQHREARPALLTSRLRFIPKPDGLR (listed as Homo sapiens) [Pep-RIA-55]
4. PALLTSRLRF (listed as Homo sapiens) [Pep-RIA-106]
5. LTSRLRF (listed as Homo sapiens) [Pep-RIA-155]

23.8
13.58
18.75
18.41
14.31

State its cellular uptake, MFI (Mean Fluorescence Intensity) on HeLa cell: ALLTSRLRFIPK (listed as Homo sapiens) [Pep-RIA-94]
21.07
